Reference source: patent US11203599B2

- Test protocol: Stable form screen of Compound I bis-HCl: solubility in solvents
- Format: physicochemical
- Run parameters: organic solvent or mixture, thermodynamic from solid; solvent DCM; Solution
Structures can show the parent of a compound that is named as a salt.
Property name: solubility

Q: For COC[C@H]1C[C@@H](c2ncc(-c3ccc4c(c3)COc3cc5c(ccc6nc([C@@H]7CC[C@H](C)N7C(=O)[C@@H](NC(=O)OC)C(C)C)[nH]c65)cc3-4)[nH]2)N(C(=O)[C@H](NC(=O)OC)c2ccccc2)C1 [Compound I bis-HCl, bis-hydrochloride] , what is its reported solubility?
Result: > 20 mg/mL

---

- Test protocol: Stable form screen of Compound I bis-HCl: solubility in solvents
- Type: physicochemical
- Run parameters: organic solvent or mixture, thermodynamic from solid; solvent Acetone; Mesophase
Structures can show the parent of a compound that is named as a salt.
Property name: solubility

Q: For COC[C@H]1C[C@@H](c2ncc(-c3ccc4c(c3)COc3cc5c(ccc6nc([C@@H]7CC[C@H](C)N7C(=O)[C@@H](NC(=O)OC)C(C)C)[nH]c65)cc3-4)[nH]2)N(C(=O)[C@H](NC(=O)OC)c2ccccc2)C1 [Compound I bis-HCl, bis-hydrochloride] , what is its reported solubility?
Result: 6000 µg/mL

---

- Test protocol: Stable form screen of Compound I bis-HCl: solubility in solvents
- Assay type: physicochemical
- Run parameters: organic solvent or mixture, thermodynamic from solid; solvent MIBK; Mesophase
Where a name gives a salt, the structure may show the parent alone.
Property name: solubility

Q: For COC[C@H]1C[C@@H](c2ncc(-c3ccc4c(c3)COc3cc5c(ccc6nc([C@@H]7CC[C@H](C)N7C(=O)[C@@H](NC(=O)OC)C(C)C)[nH]c65)cc3-4)[nH]2)N(C(=O)[C@H](NC(=O)OC)c2ccccc2)C1 [Compound I bis-HCl, bis-hydrochloride] , what is its reported solubility?
Result: < 1000 µg/mL

---

- Test protocol: Stable form screen of Compound I bis-HCl: solubility in solvents
- Assay type: physicochemical
- Run parameters: organic solvent or mixture, thermodynamic from solid; solvent 1-Propanol; final form Compound I bis-HCl Form IV
Counter-ions that a name gives are not always drawn.
Property name: solubility (µg/mL)
Reply with just the number (in µg/mL).

Q: For COC[C@H]1C[C@@H](c2ncc(-c3ccc4c(c3)COc3cc5c(ccc6nc([C@@H]7CC[C@H](C)N7C(=O)[C@@H](NC(=O)OC)C(C)C)[nH]c65)cc3-4)[nH]2)N(C(=O)[C@H](NC(=O)OC)c2ccccc2)C1 [Compound I bis-HCl, bis-hydrochloride] , what is its reported solubility?
Result: 9000

---

- Test protocol: Stable form screen of Compound I bis-HCl: solubility in solvents
- Format: physicochemical
- Run parameters: organic solvent or mixture, thermodynamic from solid; solvent IPAc; Mesophase
- Experimental: The stable form screen of Compound I bis-HCl was performed using 20 solvents (5-10 volumes) in an attempt to discover all crystalline forms, as summarized in Table 2. Four crystalline solvates were discovered in the slurries, which utilized alcohols such as methanol, ethanol and 1-propanol. […]
Structures can show the parent of a compound that is named as a salt.
Property name: solubility

Q: For COC[C@H]1C[C@@H](c2ncc(-c3ccc4c(c3)COc3cc5c(ccc6nc([C@@H]7CC[C@H](C)N7C(=O)[C@@H](NC(=O)OC)C(C)C)[nH]c65)cc3-4)[nH]2)N(C(=O)[C@H](NC(=O)OC)c2ccccc2)C1 [Compound I bis-HCl, bis-hydrochloride] , what is its reported solubility?
Result: < 1000 µg/mL

---

- Test protocol: Stable form screen of Compound I bis-HCl: solubility in solvents
- Type: physicochemical
- Run parameters: organic solvent or mixture, thermodynamic from solid; solvent Ethyl acetate; Mesophase
Where a name gives a salt, the structure may show the parent alone.
Property name: solubility

Q: For COC[C@H]1C[C@@H](c2ncc(-c3ccc4c(c3)COc3cc5c(ccc6nc([C@@H]7CC[C@H](C)N7C(=O)[C@@H](NC(=O)OC)C(C)C)[nH]c65)cc3-4)[nH]2)N(C(=O)[C@H](NC(=O)OC)c2ccccc2)C1 [Compound I bis-HCl, bis-hydrochloride] , what is its reported solubility?
Result: < 1000 µg/mL

---

- Test protocol: Stable form screen of Compound I bis-HCl: solubility in solvents
- Assay type: physicochemical
- Run parameters: organic solvent or mixture, thermodynamic from solid; solvent MTBE; Amorphous
Where a name gives a salt, the structure may show the parent alone.
Property name: solubility

Q: For COC[C@H]1C[C@@H](c2ncc(-c3ccc4c(c3)COc3cc5c(ccc6nc([C@@H]7CC[C@H](C)N7C(=O)[C@@H](NC(=O)OC)C(C)C)[nH]c65)cc3-4)[nH]2)N(C(=O)[C@H](NC(=O)OC)c2ccccc2)C1 [Compound I bis-HCl, bis-hydrochloride] , what is its reported solubility?
Result: < 1 mg/mL

---

- Test protocol: Stable form screen of Compound I bis-HCl: solubility in solvents
- Assay type: physicochemical
- Run parameters: organic solvent or mixture, thermodynamic from solid; solvent Toluene; Mesophase
Where a name gives a salt, the structure may show the parent alone.
Property name: solubility

Q: For COC[C@H]1C[C@@H](c2ncc(-c3ccc4c(c3)COc3cc5c(ccc6nc([C@@H]7CC[C@H](C)N7C(=O)[C@@H](NC(=O)OC)C(C)C)[nH]c65)cc3-4)[nH]2)N(C(=O)[C@H](NC(=O)OC)c2ccccc2)C1 [Compound I bis-HCl, bis-hydrochloride] , what is its reported solubility?
Result: < 1000 µg/mL

---

- Test protocol: Stable form screen of Compound I bis-HCl: solubility in solvents
- Format: physicochemical
- Run parameters: thermodynamic from solid; solvent Water; final form Amorphous
- Method: The stable form screen of Compound I bis-HCl was performed using 20 solvents (5-10 volumes) in an attempt to discover all crystalline forms, as summarized in Table 2. Four crystalline solvates were discovered in the slurries, which utilized alcohols such as methanol, ethanol and 1-propanol. […]
Where a name gives a salt, the structure may show the parent alone.
Property name: solubility

Q: For COC[C@H]1C[C@@H](c2ncc(-c3ccc4c(c3)COc3cc5c(ccc6nc([C@@H]7CC[C@H](C)N7C(=O)[C@@H](NC(=O)OC)C(C)C)[nH]c65)cc3-4)[nH]2)N(C(=O)[C@H](NC(=O)OC)c2ccccc2)C1 [Compound I bis-HCl, bis-hydrochloride] , what is its reported solubility?
Result: < 1000 µg/mL

---

- Test protocol: Stable form screen of Compound I bis-HCl: solubility in solvents
- Assay type: physicochemical
- Run parameters: ethanol/water, aqueous with cosolvent or surfactant or cyclodextrin, thermodynamic from solid; solvent EtOH/water; Solution
Counter-ions that a name gives are not always drawn.
Property name: solubility

Q: For COC[C@H]1C[C@@H](c2ncc(-c3ccc4c(c3)COc3cc5c(ccc6nc([C@@H]7CC[C@H](C)N7C(=O)[C@@H](NC(=O)OC)C(C)C)[nH]c65)cc3-4)[nH]2)N(C(=O)[C@H](NC(=O)OC)c2ccccc2)C1 [Compound I bis-HCl, bis-hydrochloride] , what is its reported solubility?
Result: > 20 mg/mL
